# TARGET_UNDER_TEST: Rap guanine nucleotide exchange factor 3 (Homo sapiens)
# METHOD: Counterscreen qHTS for antagonist of cAMP-regulated guanine nucleotide exchange factor 3 (EPAC1) (AID 1645888);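 note: fluorescence loss as bound BODIPY-GDP is released from Rap1B; % of control where 0% means no effect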
# COND: Rap1B-BODIPY-GDP nucleotide exchange, fluorescence; series mostly up to 154 µM
Inconclusive results are not listed. Activity calls are given as the source filed them. Calls come from the whole dose curve; as a rule, active = well fitted inhibition curve with a large enough effect; inconclusive = small, poorly fitted or top-dose-only effect; inactive = no such curve, though single readings can be large or run the other way.
RECORDED_ENDPOINT: activity change, negative = inhibition

Illustrative cases are given below, each with its answer.
Give recorded activity change, negative = inhibition. `CC(C)NC(=O)c1sc(=S)n2c1[nH]c(=O)c1ccc(C(=O)NCCc3ccc(Cl)cc3)cc12`
-15.1% [at 30.8 µM] (inactive)

Specify reported activity change, negative = inhibition for the compound shown: `Cc1ccc2c(c1)-c1c(cnn1CC(=O)N1CCN(c3cccc(C(F)(F)F)c3)CC1)CO2`
inactive

Hello, please tell me recorded activity change, negative = inhibition for this one: `Cc1ccc(-c2csc(/C(C#N)=C(\O)CCl)n2)cc1`
-2.33% [at 30.8 µM] (inactive)

Provide activity change, negative = inhibition value for the following compound: `COC(=O)c1ccc2nc(-c3ccc(OC)c(OC)c3)c(CC3CCCCC3)n2c1`
inactive

Now let's try a different one.
Consider the compound `CCCc1nc2c(=O)n(C)c(=O)nc-2n(C)n1` . State its measured activity change, negative = inhibition.
inactive

###

# TARGET_UNDER_TEST: Rap guanine nucleotide exchange factor 3 (Homo sapiens)
# METHOD: Counterscreen qHTS for agonist of cAMP-regulated guanine nucleotide exchange factor 3 (EPAC1) (AID 1645889); note: % of control where 0% means no effect; nearly all actives have a fitted effect of over 40% in size
# COND: EPAC1 Rap1B-BODIPY-GDP exchange, fluorescence; series mostly up to 154 µM
Inconclusive results are not listed. Calls of active or inactive are those of the source. Calls follow the shape of the dose curve; as a rule, active = well fitted activation curve with a large enough effect; inconclusive = small, poorly fitted or top-dose-only effect, or another doubt; inactive = no such curve, though single readings can be large or run the other way.
RECORDED_ENDPOINT: activation

These recorded examples may help you get a feel for the data.
Fill in reported activation for this entry: O=C1OC(Cc2ccccc2)(c2ccccc2)c2ccccc21 (stereo unspecified)
inactive

# return recorded activation for entry `O=C(C=Cc1ccccc1)c1c[nH]c2ccccc2c1=O`
9.21% [at 30.8 µM] (inactive)

Return value of activation for input `O=C(/C=C/c1cccc(Cl)c1Cl)OCC(=O)N1CCOCC1` , no commentary.
inactive

Specify activation for `Cc1ccc(NC(=O)CCC(=O)c2cccs2)nc1` and stop.
21.4% [at 30.8 µM] (inactive)

Kindly indicate its recorded activation. Item: `COc1cccc(CN(C)CC(=O)Nc2c(C)cccc2C(C)C)c1`
14.6% [at 30.8 µM] (inactive)

Parameters: items (list). Returns: activation for each item.
1. CC1(Cc2cc(Cl)ccc2C(F)(F)F)C(=O)Nc2c(Cl)cccc21 (stereo unspecified)
2. CCCCCn1nc(-c2ccccc2)c2nc3ccccc3nc21

["inactive", "10.8% [at 30.8 µM] (inactive)"]

###

# TARGET_UNDER_TEST: Rap guanine nucleotide exchange factor 4 (Homo sapiens)
# METHOD: Confirmatory qHTS for agonist of cAMP-regulated guanine nucleotide exchange factor 4 (EPAC2) (AID 1645884);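 note: nucleotide exchange releases bodipy-GDP from Rap1 and this lowers its fluorescence; % is set by controls: 0 for no effect and ±100 for the full control effect; nearly all actives have a fitted effect of over 65% in size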
# COND: EPAC2 GEF activity, Rap1B-BODIPY-GDP fluorescence; series mostly up to 154 µM
Results filed as inconclusive are left out. Active and inactive are the calls of the source. Calls come from the whole dose curve; as a rule, active = well fitted activation curve with a large enough effect; inconclusive = small, poorly fitted or top-dose-only effect; inactive = no such curve, though single readings can be large or run the other way.
RECORDED_ENDPOINT: activation

Give the value of activation reported for the following: `COC(=O)c1c(-c2ccc(OC)cc2)sc2ccc(OC)cc12`
inactive

State its activation for this compound: CC(=O)OC1CSC2c3ccccc3C(=O)N2Cc2sccc21 (stereo unspecified)
inactive

###

# TARGET_UNDER_TEST: Rap guanine nucleotide exchange factor 3 (Homo sapiens)
# METHOD: Counterscreen qHTS for antagonist of cAMP-regulated guanine nucleotide exchange factor 3 (EPAC1) (AID 1645888);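 note: fluorescence loss as bound BODIPY-GDP is released from Rap1B; % of control where 0% means no effect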
# COND: Rap1B-BODIPY-GDP nucleotide exchange, fluorescence; series mostly up to 154 µM
Inconclusive results are not listed. Activity calls are given as the source filed them. Calls follow the shape of the dose curve; as a rule, active = well fitted inhibition curve with a large enough effect; inconclusive = small, poorly fitted or top-dose-only effect; inactive = no such curve, though single readings can be large or run the other way.
RECORDED_ENDPOINT: activity change, negative = inhibition

Study these solved cases before continuing.
Specify activity change, negative = inhibition for `CCN(C(=O)CN1CCN(c2ccccc2O)CC1)c1c(N)n(Cc2ccccc2)c(=O)[nH]c1=O` , system Rap guanine nucleotide exchange factor 3 (Homo sapiens).
inactive

Report its activity change, negative = inhibition with Rap guanine nucleotide exchange factor 3 (Homo sapiens) as the test system: `Cc1ccc(C23CC4CC(CC(C(=O)N(C)C)(C4)C2)C3)cc1`
inactive

Lab note: record activity change, negative = inhibition of `CCC(CC)NC(=O)c1ccccc1Oc1ccccc1` tested on Rap guanine nucleotide exchange factor 3 (Homo sapiens).
6.83% [at 30.8 µM] (inactive)

System Rap guanine nucleotide exchange factor 3 (Homo sapiens). Read-out activity change, negative = inhibition. Item `O=C(CS(=O)(=O)c1ccccc1)c1cc2cc(F)ccc2oc1=O` . Report value.
inactive

Print Rap guanine nucleotide exchange factor 3 (Homo sapiens) activity change, negative = inhibition for CC(=O)OC1CSC2c3ccccc3C(=O)N2Cc2sccc21 (stereo not given) .
inactive

Look up and report measured activity change, negative = inhibition (Rap guanine nucleotide exchange factor 3 (Homo sapiens)) for the following molecule: CCOC(=O)C1=C(C)OC(N)=C(C#N)C1c1cc2c(cc1Br)OCO2 (stereo not given)
-23.2% [at 30.8 µM] (inactive)

Find activity change, negative = inhibition for `COc1cc(NS(=O)(=O)c2cc3[nH]c(=O)c(=O)[nH]c3cc2C)cc(OC)c1OC` on Rap guanine nucleotide exchange factor 3 (Homo sapiens) and write it down.
-5.07% [at 30.8 µM] (inactive)

Please report the measured activity change, negative = inhibition for COc1ccc(NC2c3ccccc3C(=O)N2c2ccccn2)cc1Cl (stereo not given) tested on Rap guanine nucleotide exchange factor 3 (Homo sapiens).
inactive

Give me activity change, negative = inhibition for each of these molecules, listed below.
1. CCOc1ccc(/C=C2\SC(=S)NC2=O)cc1OC
2. CC1(C(=O)NS(=O)(=O)c2ccc3c(c2)CCO3)CCN1C(=O)C1(c2ccc(Cl)cc2)CCC1 (stereo not given)

["inactive", "-29.8% [at 30.8 µM] (inactive)"]

###

# TARGET_UNDER_TEST: Dual specificity protein kinase CLK4 (Homo sapiens) (UniProt Q9HAZ1)
# Sequence (Q9HAZ1 whole entry, looked up): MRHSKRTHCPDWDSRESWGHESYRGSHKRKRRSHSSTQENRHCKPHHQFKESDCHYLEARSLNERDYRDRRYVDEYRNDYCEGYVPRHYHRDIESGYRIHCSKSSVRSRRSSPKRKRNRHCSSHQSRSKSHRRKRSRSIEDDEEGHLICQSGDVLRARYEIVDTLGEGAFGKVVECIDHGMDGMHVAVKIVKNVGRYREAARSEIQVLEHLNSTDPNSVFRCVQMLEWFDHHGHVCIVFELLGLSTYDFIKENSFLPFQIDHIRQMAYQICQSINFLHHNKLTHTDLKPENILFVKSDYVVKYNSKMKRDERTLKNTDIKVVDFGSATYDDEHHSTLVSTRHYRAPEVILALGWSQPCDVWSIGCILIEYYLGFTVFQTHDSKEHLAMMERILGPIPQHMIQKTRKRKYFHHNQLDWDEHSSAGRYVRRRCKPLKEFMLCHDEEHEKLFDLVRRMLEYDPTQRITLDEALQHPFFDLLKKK
# METHOD: qHTS Assay for Inhibitors of CDC-like Kinase 4 (ADP-Glo Assay) (AID 1771); note: nearly all actives have a fitted effect of over 70% in size
# COND: recombinant CLK4, ADP-Glo luminescence; series mostly up to 80 µM
Inconclusive results are not listed. Calls of active or inactive are those of the source. Calls come from the whole dose curve; as a rule, active = well fitted inhibition curve with a large enough effect; inconclusive = small, poorly fitted or top-dose-only effect; inactive = flat fitted curve, though single readings scatter.
Permitted responses: active, inactive

# fetch the recorded call for `c1ccc(Nc2nc(-c3cccnc3)nc3ccccc23)cc1` here
active

Per the assay record, what outcome was assigned to `Cc1nc2cnc(OCc3ccccc3)nc2n(CCc2ccccc2)c1=O` ?
inactive

###

# Test system: CP335
# METHOD: qHTS profiling for inhibitors of Plasmodium falciparum proliferation (AID 504749); note: nearly all actives have a fitted effect of over 60% in size
# COND: P. falciparum in erythrocytes, SYBR Green DNA, 72 h; series mostly up to 28.7 µM
Results filed as inconclusive are left out. Calls of active or inactive are those of the source. Calls follow the shape of the dose curve; as a rule, active = well fitted inhibition curve with a large enough effect; inconclusive = small, poorly fitted or top-dose-only effect; inactive = flat fitted curve, though single readings scatter. Bridge positions count the residues as written; N and C are the ends. Square brackets hold non-standard residues; d marks the D form. Peptide text beside a SMILES is read from it. * marks the point of attachment. Octanoyl(6-Me) = CCC(C)CCCCC(=O)*; Dab = NCC[CH](N)C(=O)O
Write down one outcome, taken from active, inactive

Before answering, review these 5 worked examples.
Short answer needed: outcome of this test for CC1CCC(C(C)C)C(OC(=O)c2ccccc2O)C1 (centres undefined) ?
inactive

Give the logged outcome of this assay for the following compound: CC(=O)OC1CC2CCC1(C)C2(C)C (centres undefined)
inactive

Could you please tell me the result logged for Nc1nc(Cl)nc2c1ncn2C1CC(O)C(CO)O1 (centres undefined) in this assay?
inactive

What did the test return for CCC(C)CCCCC(=O)NC(CCN)C(=O)NC(C(=O)NC(CCN)C(=O)NC1CCNC(=O)C(C(C)O)NC(=O)C(CCN)NC(=O)C(CCN)NC(=O)C(CC(C)C)NC(=O)C(Cc2ccccc2)NC(=O)C(CCN)NC1=O)C(C)O (centres undefined) ({Octanoyl(6-Me)}-[Dab]T[Dab][Dab][Dab]FL[Dab][Dab]T; lactam 4-C; configuration not given here) ?
inactive

Record request — test call for CO[C@@H]1[C@@H](OC2OC(C)C(OC3CC(C)(O)C(OC(=O)CC(C)C)C(C)O3)C(N(C)C)C2O)[C@@H](CC=O)C[C@@H](C)C(=O)/C=C\C2O[C@H]2C[C@@H](C)OC(=O)C[C@H]1OC(C)=O (some centres undefined)
active

Next:
Hi, sorry to bother you, what did the test record for NC1=NC(S)C2N=CN=C2N1 (centres undefined) ?
inactive

# lookup: test call for C=C[C@]1(C)C[C@@H](OC(=O)CSCCN(CC)CC)[C@]2(C)C(C)CC[C@]3(CCC(=O)[C@H]32)[C@@H](C)[C@@H]1O (some centres undefined)
active

Lab log entry: CC(=O)O[C@@]12CO[C@@H]1C[C@H](O)[C@@]1(C)C(=O)[C@H](O)C3=C(C)[C@@H](OC(=O)C(O)[C@@H](NC(=O)OC(C)(C)C)c4ccccc4)C[C@@](O)([C@@H](OC(=O)c4ccccc4)[C@H]21)C3(C)C (some centres undefined) — outcome as called in the assay?
active

Give the logged outcome of this assay for the following compound: `CC(C)CN(C[C@@H](OP(=O)(O)O)[C@H](Cc1ccccc1)NC(=O)O[C@@H]1CCOC1)S(=O)(=O)c1ccc(N)cc1`
inactive

For CCC(C)n1ncn(-c2ccc(N3CCN(c4ccc(OCC5COC(Cn6cncn6)(c6ccc(Cl)cc6Cl)O5)cc4)CC3)cc2)c1=O (centres undefined) , which call appears in the assay record?
active

Status in this test for `C1OCOCO1` ?
inactive

// return assay outcome for `CC1(C)S[C@@H]2[C@H](NC(=O)COc3ccccc3)C(=O)N2[C@H]1C(=O)O`
inactive

Identify the outcome logged in this assay for the compound shown: O=C(O)c1cc(O)c2c(c1)[C@H]([C@H]1c3cc(C(=O)O)cc(O)c3C(=O)c3c(O[C@@H]4OC(CO)C(O)C(O)C4O)cccc31)c1cccc(O[C@@H]3OC(CO)C(O)C(O)C3O)c1C2=O (some centres undefined)
inactive

Test call for this compound, please: `CN(C)CCCCCCN(C)C`
inactive
